Assay: Blood serum concentration, disc method
Type: in vivo, ddY strain mice
Settings: mouse, serum, po; 4 hours; 60 mg/kg per os; average ± standard error
Outcome Measure: concentration at 4 h (ng/mL)
Give bare numbers, in ng/mL.

>>> print(df.to_string())
                                   compound  endpoint_value
0  CCn1cc(C(=O)O)c(=O)c2cc(F)c(N3CCNCC3)cc21 [Comparison Compd., reference compound]              90

Next item in the queue.
Q) concentration at 4 h lookup needed for Cc1csc2c(C(=O)O)c(=O)c3cc(F)c(N4CCN(C)CC4)cc3n12 [Example 22b] , thanks.
A) 2500

* * *

Reported MIC, Serracia marcescens IFO 3736.
The number alone won't do; follow it with the unit.

Sample records with MIC:
                                   molecule  endpoint_value
0  CN1CCN(c2cc3c(cc2F)c(=O)c(C(=O)O)c2sccn23)CC1      0.39 µg/mL
1  Cc1csc2c(C(=O)O)c(=O)c3cc(F)c(N4CCN(C)CC4)cc3n12 [Example 22b]      0.39 µg/mL

Please state MIC for every molecule in the list that follows.
1. Cc1csc2c(C(=O)O)c(=O)c3cc(F)c(N4CCNCC4)cc3n12
2. O=C(O)c1c(=O)c2cc(F)c(N3CCNCC3)cc2n2ccsc12
3. C=CCN1CCN(c2cc3c(cc2F)c(=O)c(C(=O)O)c2sccn23)CC1

A)
1: 0.2 µg/mL; 2: 0.2 µg/mL; 3: 0.39 µg/mL

* * *

Test system: Pseudomonas aeruginosa E-2
Test: Minimum growth inhibiting concentration, Japan Chemotherapeutic Society method
Assay type: cell-based
Conditions: E2; Pseudomonas aeruginosa E-2, Gram -; read-out: Minimum Growth Inhibiting Concn
Assignment: determine reported MIC for the given molecules.

Sample records with MIC:
                                   molecule               tested_target  endpoint_value
0  Cc1csc2c(C(=O)O)c(=O)c3cc(F)c(N4CCN(C)CC4)cc3n12 [Example 22b]  Pseudomonas aeruginosa E-2      0.39 µg/mL
1  O=C(O)c1c(=O)c2cc(F)c(N3CCNCC3)cc2n2ccsc12  Pseudomonas aeruginosa E-2       0.2 µg/mL
2  CN1CCN(c2cc3c(cc2F)c(=O)c(C(=O)O)c2sccn23)CC1  Pseudomonas aeruginosa E-2      0.39 µg/mL
3  Cc1csc2c(C(=O)O)c(=O)c3cc(F)c(N4CCNCC4)cc3n12  Pseudomonas aeruginosa E-2      0.39 µg/mL

Next item in the queue.
Q) MIC lookup needed for C=CCN1CCN(c2cc3c(cc2F)c(=O)c(C(=O)O)c2sccn23)CC1 , thanks.
A) 1.56 µg/mL

* * *

Assignment: determine reported concentration at 2 h for the given compounds.
Assay: Blood serum concentration, disc method
Type: in vivo, ddY strain mice
Settings: mouse, serum, po; 2 hours; 60 mg/kg per os; average ± standard error
One number for each entry, in ng/mL.

                                   compound  endpoint_value
0  Cc1csc2c(C(=O)O)c(=O)c3cc(F)c(N4CCN(C)CC4)cc3n12 [Example 22b]            3300

Q) concentration at 2 h lookup needed for CCn1cc(C(=O)O)c(=O)c2cc(F)c(N3CCNCC3)cc21 [Comparison Compd., reference compound] , thanks.
A) 330

* * *

Assignment: determine reported concentration at 0.5 h for the given compounds.
Experiment: Blood serum concentration, disc method
Type: in vivo, ddY strain mice
Conditions: mouse, serum, po; 0.5 hours; 60 mg/kg per os; average ± standard error

                                   compound  endpoint_value
0  Cc1csc2c(C(=O)O)c(=O)c3cc(F)c(N4CCN(C)CC4)cc3n12 [Example 22b]      5400 ng/mL

Next item in the queue.
Q) concentration at 0.5 h lookup needed for CCn1cc(C(=O)O)c(=O)c2cc(F)c(N3CCNCC3)cc21 [Comparison Compd., reference compound] , thanks.
A) 900 ng/mL

* * *

Assignment: determine reported MIC for the given molecules.
Test system: Proteus vulgaris DX-19
Experiment: Minimum growth inhibiting concentration, Japan Chemotherapeutic Society method
Format: cell-based
Conditions: DX19; Proteus vulgaris DX-19, Gram -; read-out: Minimum Growth Inhibiting Concn
The number alone won't do; follow it with the unit.

Sample records with MIC:
>>> df
                                   molecule  outcome_measure  endpoint_value
0  O=C(O)c1c(=O)c2cc(F)c(N3CCNCC3)cc2n2ccsc12 [Example 13]              MIC     0.013 µg/mL
1  Cc1csc2c(C(=O)O)c(=O)c3cc(F)c(N4CCNCC4)cc3n12 [Example 21]              MIC    0.0016 µg/mL
2  CN1CCN(c2cc3c(cc2F)c(=O)c(C(=O)O)c2sccn23)CC1 [Example 14]              MIC    0.0063 µg/mL

Please state MIC for every molecule in the list that follows.
1. C=CCN1CCN(c2cc3c(cc2F)c(=O)c(C(=O)O)c2sccn23)CC1 [Example 15]
2. Cc1csc2c(C(=O)O)c(=O)c3cc(F)c(N4CCN(C)CC4)cc3n12 [Example 22b]

A)
1. 0.05 µg/mL
2. 0.1 µg/mL

* * *

Reported MIC, Listeria monocytogenes RIMD 1205020.
One number for each entry, in µg/mL.

                                   molecule  endpoint_value
0  C=CCN1CCN(c2cc3c(cc2F)c(=O)c(C(=O)O)c2sccn23)CC1            0.39
1  Cc1csc2c(C(=O)O)c(=O)c3cc(F)c(N4CCN(C)CC4)cc3n12 [Example 22b]             0.2
2  CN1CCN(c2cc3c(cc2F)c(=O)c(C(=O)O)c2sccn23)CC1            1.56
3  O=C(O)c1c(=O)c2cc(F)c(N3CCNCC3)cc2n2ccsc12             0.2

Next item in the queue.
Q) MIC lookup needed for Cc1csc2c(C(=O)O)c(=O)c3cc(F)c(N4CCNCC4)cc3n12 , thanks.
A) 0.2

* * *

Assignment: determine reported MIC for the given compounds.
System: Streptococcus pneumoniae Type I
Test: Minimum growth inhibiting concentration, Japan Chemotherapeutic Society method
Assay type: cell-based
Details: Gram +, 5% horse blood added agar medium, read-out: Minimum Growth Inhibiting Concn

Sample records with MIC:
>>> print(df.to_string())
                                   compound                    tested_target  endpoint_value
0  C=CCN1CCN(c2cc3c(cc2F)c(=O)c(C(=O)O)c2sccn23)CC1 [Example 15]  Streptococcus pneumoniae Type I      0.39 µg/mL
1  O=C(O)c1c(=O)c2cc(F)c(N3CCNCC3)cc2n2ccsc12 [Example 13]  Streptococcus pneumoniae Type I       0.1 µg/mL
2  Cc1csc2c(C(=O)O)c(=O)c3cc(F)c(N4CCNCC4)cc3n12 [Example 21]  Streptococcus pneumoniae Type I       0.2 µg/mL

Please state MIC for every compound in the list that follows.
1. Cc1csc2c(C(=O)O)c(=O)c3cc(F)c(N4CCN(C)CC4)cc3n12 [Example 22b]
2. CN1CCN(c2cc3c(cc2F)c(=O)c(C(=O)O)c2sccn23)CC1 [Example 14]

A)
0.39 µg/mL
0.2 µg/mL

* * *

Assay: Blood serum concentration, disc method
Assay type: in vivo, ddY strain mice
Conditions: mouse, serum, po; 0.25 hours; 60 mg/kg per os; average ± standard error
Assignment: determine reported concentration at 0.25 h for the given compounds.

In [3]: df
Out[3]:
                                   compound  endpoint_value
0  CCn1cc(C(=O)O)c(=O)c2cc(F)c(N3CCNCC3)cc21 [Comparison Compd., reference compound]       640 ng/mL

Next item in the queue.
Q) concentration at 0.25 h lookup needed for Cc1csc2c(C(=O)O)c(=O)c3cc(F)c(N4CCN(C)CC4)cc3n12 [Example 22b] , thanks.
A) 3400 ng/mL

* * *

Reported MIC, Proteus mirabilis 181.
One number for each entry, in µg/mL.

Sample records with MIC:
>>> print(df.to_string())
                                   compound          tested_target  outcome_measure      u  endpoint_value
0  C=CCN1CCN(c2cc3c(cc2F)c(=O)c(C(=O)O)c2sccn23)CC1  Proteus mirabilis 181              MIC  µg/mL             0.2
1  O=C(O)c1c(=O)c2cc(F)c(N3CCNCC3)cc2n2ccsc12  Proteus mirabilis 181              MIC  µg/mL          0.0063
2  Cc1csc2c(C(=O)O)c(=O)c3cc(F)c(N4CCNCC4)cc3n12  Proteus mirabilis 181              MIC  µg/mL            0.05
3  Cc1csc2c(C(=O)O)c(=O)c3cc(F)c(N4CCN(C)CC4)cc3n12 [Example 22b]  Proteus mirabilis 181              MIC  µg/mL             0.2

Next item in the queue.
Q) MIC lookup needed for CN1CCN(c2cc3c(cc2F)c(=O)c(C(=O)O)c2sccn23)CC1 , thanks.
A) 0.013
